The reported numbers originate from patent US20250011413A1.

Target: T1, PF4/heparin complex (human PF4 complexed with heparin) (human, UniProt P02776 32-101)
T1 construct: Multimeric complex of PF4 with heparin (not a protein); In the EIAs: PF4 captured on biotinylated heparin on streptavidin plates; In the SRA: platelets with 0.2 U/mL heparin; also called PF4 and heparin complexes
T1 sequence: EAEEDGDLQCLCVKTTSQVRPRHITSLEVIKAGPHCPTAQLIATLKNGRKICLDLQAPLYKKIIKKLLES
Test: BLI (Octet), biotinylated PF4/heparin on streptavidin sensors, scFv at 1 µg/mL, 1:1 model, mean ± s.d.
Label label 1 when kon >= 50000 M⁻¹ s⁻¹; otherwise label 0.

Field: example entries. Status: answers known.
Binder | Class Assignment
Mutant E scFv, scFv(Y156H, D180G, Q233P) (scFv, VL-linker-VH; histidine-tagged, from E. coli BL21; also called Mut E; not shown: histidine tag from the pADL-22c vector) scFv: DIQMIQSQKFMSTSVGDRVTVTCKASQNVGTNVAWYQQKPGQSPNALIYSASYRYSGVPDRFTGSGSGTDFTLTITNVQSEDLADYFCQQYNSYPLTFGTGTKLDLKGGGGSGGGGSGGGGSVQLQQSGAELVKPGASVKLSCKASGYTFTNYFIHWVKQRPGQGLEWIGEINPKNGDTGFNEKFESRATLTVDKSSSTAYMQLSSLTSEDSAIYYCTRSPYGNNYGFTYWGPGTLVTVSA | label 1
Mutant B scFv, scFv(R18K, N152K, D180N) (scFv, VL-linker-VH; histidine-tagged, from E. coli BL21; also called Mut B; not shown: histidine tag from the pADL-22c vector) scFv: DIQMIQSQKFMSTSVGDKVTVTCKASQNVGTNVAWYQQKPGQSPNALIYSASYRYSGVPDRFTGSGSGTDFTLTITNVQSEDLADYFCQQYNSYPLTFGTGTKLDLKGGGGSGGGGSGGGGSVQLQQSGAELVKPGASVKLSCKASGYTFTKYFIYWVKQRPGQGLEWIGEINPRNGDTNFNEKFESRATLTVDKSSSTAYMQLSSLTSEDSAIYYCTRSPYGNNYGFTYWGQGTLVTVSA | label 0
Mutant D scFv, scFv(Y156H) (scFv, VL-linker-VH; histidine-tagged, from E. coli BL21; also called Mut D; not shown: histidine tag from the pADL-22c vector) scFv: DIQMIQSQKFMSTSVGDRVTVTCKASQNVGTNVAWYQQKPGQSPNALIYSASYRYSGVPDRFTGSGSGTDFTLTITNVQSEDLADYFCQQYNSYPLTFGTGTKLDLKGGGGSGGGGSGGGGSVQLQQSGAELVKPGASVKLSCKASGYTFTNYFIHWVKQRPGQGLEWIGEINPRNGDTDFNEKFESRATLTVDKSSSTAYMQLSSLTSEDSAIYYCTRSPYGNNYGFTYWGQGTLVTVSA | label 0
Wildtype scFv (KKO-derived single chain variable fragment) (scFv, VL-(G4S)3 linker-VH; expressed in E. coli BL21 from pADL-22c, purified on Ni-NTA as histidine-tagged scFv, about 28 kDa; also called WT; KKO-scFv; not shown: histidine tag from the pADL-22c vector) scFv: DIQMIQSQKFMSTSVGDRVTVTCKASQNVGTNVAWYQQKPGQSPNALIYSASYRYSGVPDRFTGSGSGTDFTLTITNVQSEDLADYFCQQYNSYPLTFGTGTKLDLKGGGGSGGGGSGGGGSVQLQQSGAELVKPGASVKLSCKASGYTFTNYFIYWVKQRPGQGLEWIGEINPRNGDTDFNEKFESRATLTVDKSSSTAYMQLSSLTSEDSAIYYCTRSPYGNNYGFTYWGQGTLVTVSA | label 1

Now turn to the next binder.
In plain terms: is recorded kon at least 50000 M⁻¹ s⁻¹ for Mutant C scFv, scFv(S50N, Y53H) (scFv, VL-linker-VH; histidine-tagged, from E. coli BL21; also called Mut C; not shown: histidine tag from the pADL-22c vector) scFv: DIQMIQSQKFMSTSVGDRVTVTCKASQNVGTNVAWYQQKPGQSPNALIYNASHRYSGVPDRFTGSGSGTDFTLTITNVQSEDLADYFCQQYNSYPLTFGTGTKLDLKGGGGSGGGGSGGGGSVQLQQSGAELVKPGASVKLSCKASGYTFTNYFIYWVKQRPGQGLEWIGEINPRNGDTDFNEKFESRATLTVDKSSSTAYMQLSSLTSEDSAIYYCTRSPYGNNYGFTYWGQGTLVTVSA ?
label 1
